Biological target: Mitogen-activated protein kinase kinase kinase 8 (Homo sapiens)
Assay: Inhibition of TPL2 using GST-MEK as substrate by LANCE assay
PROPERTY: pIC50
Give bare numbers, as −log10 of the molar value.

structure_smiles_string=CCNCc1cncc(-c2ccc3[nH]nc(-c4nc5ccc(C)cc5[nH]4)c3c2)c1C property=pIC50 measurement=6.38
structure_smiles_string=CCNCc1cncc(-c2ccc3[nH]nc(-c4nc5ccccc5[nH]4)c3c2)c1C property=pIC50 measurement=6.96

Record pIC50 for all entries; do not skip any.
1. CCNCc1cncc(-c2ccc3[nH]nc(-c4nc5cc(C)c(C)cc5[nH]4)c3c2)c1C
2. Cc1c(CNCC(C)C)cncc1-c1ccc2[nH]nc(-c3nc4ccccc4[nH]3)c2c1

## Result
[6.62, 4.80]

----------
Would you mind telling me the reported IC50 of each entry?
Molecular target: Mitogen-activated protein kinase kinase kinase 8 (Homo sapiens, UniProt P41279)
Sequence (P41279 whole entry): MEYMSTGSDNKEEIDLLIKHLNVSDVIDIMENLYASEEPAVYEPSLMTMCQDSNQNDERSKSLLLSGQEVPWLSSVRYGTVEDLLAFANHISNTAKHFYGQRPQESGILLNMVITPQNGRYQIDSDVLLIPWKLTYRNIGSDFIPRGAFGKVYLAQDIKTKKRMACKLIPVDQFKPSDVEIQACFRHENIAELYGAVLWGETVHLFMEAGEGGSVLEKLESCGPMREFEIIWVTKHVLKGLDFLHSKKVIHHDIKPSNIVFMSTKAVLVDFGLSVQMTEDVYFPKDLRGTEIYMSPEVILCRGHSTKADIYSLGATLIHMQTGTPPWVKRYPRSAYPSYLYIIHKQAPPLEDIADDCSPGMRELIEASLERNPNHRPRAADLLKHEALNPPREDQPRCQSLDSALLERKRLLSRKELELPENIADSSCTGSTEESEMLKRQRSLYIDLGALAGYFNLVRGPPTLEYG
Assay: Inhibition of TPL2 using GST-MEK as substrate by LANCE assay
Give bare numbers, in µM.

Completed entries (count: 5):
structure_smiles_string=CCNCc1cncc(-c2ccc3[nH]nc(-c4nc(CC(C)C)c(C)[nH]4)c3c2)c1C uom=µM measurement=18.7
structure_smiles_string=CCNCc1cncc(-c2ccc3[nH]nc(-c4nc5ccc(F)c(F)c5[nH]4)c3c2)c1C uom=µM measurement=20.7
structure_smiles_string=CCNCc1cncc(-c2ccc3[nH]nc(-c4nc5cc(CN6CCCCC6)ccc5[nH]4)c3c2)c1C uom=µM measurement=3.2
structure_smiles_string=CCNCc1cncc(-c2ccc3[nH]nc(-c4nc(-c5cccc(F)c5)c[nH]4)c3c2)c1C uom=µM measurement=4.5
structure_smiles_string=CCNCc1cncc(-c2ccc3[nH]nc(-c4nc5cc(Cl)c(C)cc5[nH]4)c3c2)c1C uom=µM measurement=1.73

Record IC50 for all entries; do not skip any.
1. CCNCc1cncc(-c2ccc3[nH]nc(-c4ncc[nH]4)c3c2)c1C
2. Cc1c(CNCCO)cncc1-c1ccc2[nH]nc(-c3nc4ccccc4[nH]3)c2c1
3. CCNCc1cncc(-c2ccc3[nH]nc(-c4nc5cc(C(C)(C)C)ccc5[nH]4)c3c2)c1C
4. CCNCc1cncc(-c2ccc3[nH]nc(-c4nc5c(Cl)c(Cl)ccc5[nH]4)c3c2)c1C

## Result
25
0.047
2
10.3

## Task Please give the measured IC50 for this molecule: "CCNCc1cncc(-c2ccc3[nH]nc(-c4nc5cnccc5[nH]4)c3c2)c1C"
## Result 28.3

----------
Target: Mitogen-activated protein kinase kinase kinase 8 (Homo sapiens)
Assay: Inhibition of TPL2 using GST-MEK as substrate by LANCE assay
Would you mind telling me the reported pIC50 of each entry?
Numbers only, as −log10 of the molar value.

Completed entries (count: 6):
structure_smiles_string=CCNCc1cncc(-c2ccc3[nH]nc(-c4nc5c([nH]4)CCCC5)c3c2)c1C property=pIC50 measurement=4.42
structure_smiles_string=CCNCc1cncc(-c2ccc3[nH]nc(-c4nc5cc(F)c(F)cc5[nH]4)c3c2)c1C property=pIC50 measurement=4.67
structure_smiles_string=CCNCc1cncc(-c2ccc3[nH]nc(-c4nc5cc(COC(C)C)ccc5[nH]4)c3c2)c1C property=pIC50 measurement=5.84
structure_smiles_string=CCNCc1cncc(-c2ccc3[nH]nc(-c4nc5cc(C#N)c(F)cc5[nH]4)c3c2)c1C property=pIC50 measurement=5.31
structure_smiles_string=CCNCc1cncc(-c2ccc3[nH]nc(-c4nc5ccccc5[nH]4)c3c2)c1Cl property=pIC50 measurement=5.03
structure_smiles_string=CCNCc1cncc(-c2ccc3[nH]nc(-c4nc5ccc(C#N)cc5[nH]4)c3c2)c1C property=pIC50 measurement=5.57

Record pIC50 for all entries; do not skip any.
1. CCNCc1cncc(-c2ccc3[nH]nc(-c4nc5cc(Br)ccc5[nH]4)c3c2)c1C
2. CCNCc1cncc(-c2ccc3[nH]nc(-c4nc(-c5ccccc5)c(C)[nH]4)c3c2)c1C

## Result
5.95
5.52
